The reported measurements were obtained from patent US9315505B2.

- assayed-target: PI3K δ (Homo sapiens, UniProt O00329)
- Construct: purchased Upstate
- Sequence (O00329 whole entry): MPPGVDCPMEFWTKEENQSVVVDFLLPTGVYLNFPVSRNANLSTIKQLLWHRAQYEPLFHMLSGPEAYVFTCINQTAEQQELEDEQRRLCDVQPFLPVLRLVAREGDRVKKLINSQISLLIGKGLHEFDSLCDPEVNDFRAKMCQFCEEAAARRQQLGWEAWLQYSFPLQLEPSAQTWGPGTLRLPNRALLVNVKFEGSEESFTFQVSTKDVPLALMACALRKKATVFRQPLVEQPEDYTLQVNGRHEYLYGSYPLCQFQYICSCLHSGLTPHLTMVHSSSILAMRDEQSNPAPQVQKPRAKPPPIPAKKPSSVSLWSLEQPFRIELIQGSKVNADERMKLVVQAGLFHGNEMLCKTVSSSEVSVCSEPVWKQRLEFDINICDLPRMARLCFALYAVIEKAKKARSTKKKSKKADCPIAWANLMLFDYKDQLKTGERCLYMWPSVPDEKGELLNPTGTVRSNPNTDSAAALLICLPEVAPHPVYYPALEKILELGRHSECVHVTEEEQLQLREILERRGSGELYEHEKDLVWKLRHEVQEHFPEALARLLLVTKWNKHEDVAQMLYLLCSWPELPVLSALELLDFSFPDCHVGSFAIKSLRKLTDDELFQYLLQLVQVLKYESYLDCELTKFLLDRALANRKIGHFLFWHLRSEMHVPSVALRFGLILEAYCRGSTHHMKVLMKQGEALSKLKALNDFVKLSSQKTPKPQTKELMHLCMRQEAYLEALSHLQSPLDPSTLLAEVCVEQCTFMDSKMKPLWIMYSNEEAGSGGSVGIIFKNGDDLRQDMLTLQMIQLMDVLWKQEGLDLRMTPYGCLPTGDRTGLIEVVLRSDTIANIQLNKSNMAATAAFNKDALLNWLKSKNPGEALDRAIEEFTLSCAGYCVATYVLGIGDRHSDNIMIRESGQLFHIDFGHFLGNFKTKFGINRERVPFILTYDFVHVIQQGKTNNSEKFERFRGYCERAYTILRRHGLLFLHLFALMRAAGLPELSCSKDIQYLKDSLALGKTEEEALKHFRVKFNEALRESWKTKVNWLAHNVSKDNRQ
- Sequence (P27986 whole entry partner): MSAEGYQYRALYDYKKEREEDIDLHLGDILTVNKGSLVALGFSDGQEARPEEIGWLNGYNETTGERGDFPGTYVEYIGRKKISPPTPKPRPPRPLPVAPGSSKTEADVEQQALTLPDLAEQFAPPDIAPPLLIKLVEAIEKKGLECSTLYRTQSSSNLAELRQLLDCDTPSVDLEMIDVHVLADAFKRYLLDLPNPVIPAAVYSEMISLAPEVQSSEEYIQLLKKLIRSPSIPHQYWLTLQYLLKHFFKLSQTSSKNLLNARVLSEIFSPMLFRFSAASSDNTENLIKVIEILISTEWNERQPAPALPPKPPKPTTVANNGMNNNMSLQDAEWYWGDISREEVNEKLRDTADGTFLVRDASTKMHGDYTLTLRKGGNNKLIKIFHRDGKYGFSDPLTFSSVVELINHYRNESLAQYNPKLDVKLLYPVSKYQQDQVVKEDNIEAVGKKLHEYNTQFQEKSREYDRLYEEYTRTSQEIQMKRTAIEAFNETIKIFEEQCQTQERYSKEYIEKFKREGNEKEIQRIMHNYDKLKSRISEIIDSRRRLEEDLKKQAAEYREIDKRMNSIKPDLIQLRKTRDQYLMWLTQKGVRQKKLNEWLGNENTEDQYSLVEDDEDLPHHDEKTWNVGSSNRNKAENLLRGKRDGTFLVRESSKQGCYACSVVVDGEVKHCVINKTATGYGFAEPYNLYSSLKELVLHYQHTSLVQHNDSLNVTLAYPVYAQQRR
- assay-summary: In vitro IC50, PI3K δ (p110δ/p85α inhibition assay)
- Type: biochemical
- condition-context: in vitro kinase assay; read-out: IC50(nM) PI3K δ
- Description: IC50 values are measured using either a standard TLC assay for lipid kinase activity (described below) or a high-throughput membrane capture assay. […] The TLC plates are then dried, exposed to a phosphorimager screen (Storm, Amersham), and quantitated. Other commercial kits or systems for assaying PI3-K activities are available. […] The plate is sealed, incubated for 1 hour at room temperature, and then read on an appropriate plate reader. Data is analyzed and IC50s are generated using GraphPad Prism 5.
observation-type: IC50

Prompt: Output IC50 of Cc1cccc2cc(C(C)Nc3ncnc4[nH]cnc34)nc(CCN3CCN(S(C)(=O)=O)CC3)c12 (stereo not shown) [Compound 50]
Response: < 100 nM

Prompt: Determine its reported IC50: CC(=O)N1CCC(Oc2nc(C(C)Nc3ncnc4[nH]cnc34)cc3cccc(C)c23)CC1 (stereo not shown) [Compound 47]
Response: < 100 nM

Prompt: Give IC50 for the following molecule: Cc1cccc2cc(C(C)Nc3ncnc4[nH]cnc34)nc(OC3CCNCC3)c12 (stereo not shown) [Compound 14]
Response: < 1000 nM

Continuing:
Prompt: Answer with the recorded IC50 for the molecule listed here: C[C@H](Nc1ncnc2[nH]cnc12)c1nc(N2CCCC2)c2c(Cl)cccc2n1 [Compound 92]
Response: < 1000 nM
